Exercise: state measured melting point for each of the compounds provided.

[[record]]
smiles_structure = "Cc1nc(OCC=C(F)F)c(C#N)c(N2CCc3ccccc3CC2)n1"
data_value = "158 to 159 °C"


State recorded melting point for all listed compounds.
1. CC(C)Oc1cc(-n2c(Cl)nc(C(F)(F)F)cc2=O)c(F)cc1Br
2. Cc1ncnn1-c1cc(F)ccc1CNC(=O)c1nc2n(c(=O)c1OCc1ccccc1)CCN2C(C)C
3. Cc1ccc(N)cc1C(=O)O
4. Fc1ccc(-c2cc(-c3ccccc3)c3cc(Cl)ccc3n2)cc1

["102 °C", "158 to 159 °C", "142 to 144 °C", "141 to 142 °C"]

---

Exercise: state measured melting point for each of the compounds provided.

[[record]]
compound = "C=CCc1cc(C(=O)OCC)ccc1O"
data_value = "67 to 70 °C"

[[record]]
compound = "CCOc1c(C(C)=O)cnc2[nH]ncc12"
data_value = "245 to 248 °C"

[[record]]
compound = "CCc1cccc(CC)c1NC(=O)N(CC1CCCCC1)C1CCC(c2ccccc2)CC1 (configuration not stated)"
data_value = "166 to 168 °C"

[[record]]
compound = "c1ccc(CCc2nc(COc3ccc(CCCn4ccnc4)cc3)co2)cc1"
data_value = "67 to 68 °C"

[[record]]
compound = "N#CC(C(=O)NCc1ccccc1)C(=O)c1nn(-c2ccc(F)cc2)c2c1CSc1ccc(Cl)cc1-2 (configuration not stated)"
data_value = "216 to 218 °C"


State recorded melting point for all listed compounds.
1. CSc1cc2n(c(=O)n1)C(C)N=C2 (configuration not stated)
2. C=CCOc1ccccc1OCC=Cc1ccc(OC)c(OC)c1
3. CC(O)C#Cc1cc(C(C)Nc2nc(N)nc(C(C)(C)F)n2)ccc1F (configuration not stated)

221 to 222 °C
60 to 60.5 °C
119 to 122 °C

State recorded melting point for all listed compounds.
1. CON=C(C)c1nc(-c2cccnc2)[nH]c1C
2. COC(=O)c1cccc2c1Nc1ccc(I)cc1C2

203 to 205 °C
122 to 124 °C

State recorded melting point for all listed compounds.
1. CCOC(Oc1cc(Cl)cc(Cl)c1)C(=O)O (configuration not stated)
2. Nc1cc(C(F)(F)F)ccc1N(N)C=O
3. CC1(C)Oc2ccsc2C(NC(=O)c2ccc(C#N)cc2)C1O (configuration not stated)
4. c1ccc(-c2nc3ccc(NCCCN4CCC(OC(c5ccccc5)c5ccccc5)CC4)nn3n2)cc1
5. CC(=NO)c1ccccc1NC(C(N)=O)c1c(Cl)cccc1Cl (configuration not stated)
6. O=C(NO)[C@H]1CN(C(=O)Nc2ccccc2)CCN1S(=O)(=O)c1ccc(-c2ccc(F)cc2)s1

1. 83.5 to 86.5 °C
2. 121 to 122 °C
3. 177 to 178 °C
4. 170 to 172 °C
5. 115 °C
6. 187 to 188 °C

State recorded melting point for all listed compounds.
1. Cc1ccc2c(c1)cc(C(=O)O)n2CC(=O)OC(C)(C)C
2. C=CCNCC(O)COc1cccc2c1CC(=O)N2 (configuration not stated)
3. O=C1OC(=O)c2cc(OCCCOc3ccccc3)ccc21
4. O=C(CBr)Nc1ccccc1C(=O)O
5. Cc1c(F)c(N2CCC(N)C2)c(F)c2c1c(=O)c(C(=O)O)cn2-c1ccc(F)cc1F (configuration not stated)
6. C=C(C)Cn1c(=O)n(C)c(=O)c2c(SCCCO)n(Cc3cccc4ccccc34)nc21

1: 174 to 176 °C; 2: 124 to 127 °C; 3: 96 to 98 °C; 4: 165 to 168 °C; 5: 230 to 232 °C; 6: 138 to 139 °C

---

property measured: melting point

Before answering, review these 8 worked examples.
[[record]]
molecule = "CC(=O)Nc1nonc1-c1nc2ccccc2n1CC(=O)c1ccc(Cl)cc1"
data_value = "202 to 205 °C"

[[record]]
molecule = "O=C(O)CN1CCN2c3ccccc3Cn3cccc3C2C1 (centres undefined)"
data_value = "249 to 250 °C"

[[record]]
molecule = "Cc1occc1C(=O)Nc1ccc(Cl)c(C2OCCO2)c1"
data_value = "134 to 135 °C"

[[record]]
molecule = "COC(=O)CCCCNC(=O)[C@H](Cc1ccccc1)NC(=O)OC(C)(C)C"
data_value = "98 to 100 °C"

[[record]]
molecule = "c1cnc2ccc(Cn3nnc4ccc(-c5cn[nH]c5)nc43)cc2c1"
data_value = "215 to 218 °C"

[[record]]
molecule = "CN(C)c1ncc(-c2nc3cccc(CO)c3o2)cn1"
data_value = "212 to 215 °C"

[[record]]
molecule = "COc1ccc(NN=C(Sc2c(C)cccc2C)C(C)=O)cc1"
data_value = "107 to 109 °C"

[[record]]
molecule = "COc1ccc(N2C(=O)[C@@H](N3C(=O)c4ccccc4C3=O)[C@H]2/C=C/c2ccccc2)cc1 (relative stereo)"
data_value = "202 to 203 °C"


Next:
So what's the measured melting point for this one? COc1ccc(C2=NN(CCCCCCNCC(O)c3ccc(N)c(C#N)c3)C(=O)C3CCCCC23)cc1OC (centres undefined)
101 to 103 °C

---

Exercise: state measured melting point for each of the compounds provided.
Answers are plain numbers, in °C.

[[record]]
compound = "CCCC1=C(C(=O)OCC)C(c2ccccc2S(C)=O)c2c[nH]nc2N1 (stereo unspecified)"
property_measured = "melting point"
data_value = 216

[[record]]
compound = "C1=NNSc2ccccc21"
property_measured = "melting point"
data_value = 314


Next:
So what's the measured melting point for this one? Cc1ccc(F)c(C(C)Oc2ccc3nc(-c4ccccc4OC(N)=O)sc3c2)c1Cl (stereo unspecified)
205

---

Exercise: state measured melting point for each of the compounds provided.

Before answering, review these 5 worked examples.
[[record]]
compound = "COc1cccc(-c2cc3[nH]nc(I)c3s2)c1"
data_value = "159 to 163 °C"

[[record]]
compound = "CN1CCN(c2nn(C(=O)c3ccccc3)c3ccccc23)CC1"
data_value = "104 to 106 °C"

[[record]]
compound = "COC(=O)/C=C/n1cnc2c(OC)cc(OC)cc2c1=O"
data_value = "224 to 226 °C"

[[record]]
compound = "CC#CCCn1ncc2c(NC(=O)CC)c3c(nc21)CN(CCC)C3=O"
data_value = "130 to 132 °C"

[[record]]
compound = "COC(=O)COc1noc2ccc([N+](=O)[O-])cc12"
data_value = "72 to 73.5 °C"


State recorded melting point for all listed compounds.
1. CCN(CCSCc1[nH]cnc1C)C(=N)NC#N
2. CC(C)c1ccc(C(=O)C(c2ccccc2)C2CCCC2)c(C(C)C)c1OS(N)(=O)=O (configuration not stated)
3. C=CCc1ccc2oc(C(=O)OCC)c(C)c2c1O
4. CC1(C)O[C@H]2CC(O)=C(O)C(=O)[C@H]2O1

1: 118 to 120 °C; 2: 142 to 143 °C; 3: 123 °C; 4: 153 to 154 °C

State recorded melting point for all listed compounds.
1. OCc1nnc2n1-c1ccc(Cl)cc1C(c1ccccc1)=NC2
2. O=S1(=O)c2ccccc2Nc2nccnc21

1. 204 to 206 °C
2. 316 to 318 °C

State recorded melting point for all listed compounds.
1. CCOC(=O)CNC(=O)C[C@H]1O[C@@H](c2ccccc2)c2cc(Cl)ccc2N(C(C)C)C1=O (relative stereo)
2. N#Cc1cc(-c2ccccc2F)[nH]c1Cl
3. COCc1cc(-c2ncn(-c3cccc(Oc4ccccc4)c3)c2C)on1
4. Nc1nc(O)c2c(n1)NCC(CCc1ccc(C(=O)N[C@@H](CCC(=O)O)C(=O)O)[nH]1)C2 (some centres not stated)
5. COCCN(CCOC)c1ccccc1NC(N)=S
6. COc1ccc(O)c(C2Sc3ccccc3N(C)C2=O)c1 (single isomer, unassigned; (-))
7. CC(C)(O)Cn1c(CO)nc2c(N)nc3cc(-c4cccc(CO)c4)cnc3c21

1: 188 to 190 °C; 2: 218 to 220 °C; 3: 83 °C; 4: > 260 °C; 5: 118 to 119 °C; 6: 160 to 162 °C; 7: 227 to 229 °C

---

property measured: melting point

Before answering, review these 3 worked examples.
[[record]]
compound = "COc1ccc(C(=O)N2CCC[C@H]2C(OC)OC)cc1"
data_value = "51 to 52.5 °C"

[[record]]
compound = "O=C(O)/C=C/c1ccc(-c2nc3c(=O)n(Cc4ccccc4)c(=O)n(Cc4ccccc4)c3[nH]2)cc1"
data_value = "> 300 °C"

[[record]]
compound = "c1ccc(N2CCN(CC[C@H]3CC[C@H](c4c[nH]c5ccccc54)CC3)CC2)nc1"
data_value = "147 to 148 °C"


State recorded melting point for all listed compounds.
1. Cc1ccc(C2CCC(=O)Nc3ccccc32)cc1 (stereo not given)
2. COCCN1Cc2cc(C(=O)O)ccc2N(C)C(CC(=O)O)C1=O (stereo not given)
3. C=CCN1C(C)(C)CC(=C2CC(C)(C)N(CC=C)C(C)(C)C2)CC1(C)C
4. C#CCNC(=O)C(c1ccccc1)c1ccccc1
5. CC(C)(C)Oc1ccc(C(N)=O)cc1
6. CCOC(=O)C1(F)C(=O)NC(=O)NC1O/N=C\c1ccc(C)o1 (stereo not given)
7. CCn1ccc(-c2ccc(C(=O)N3Cc4cccn4Cc4ccccc43)cc2)n1
8. COc1cccc(CC(=O)O)c1OCCCc1cn(-c2ncc(Cl)cc2Cl)nc1C(C)C

1: 178 to 181 °C; 2: 228 to 230 °C; 3: 147 to 148 °C; 4: 131 °C; 5: 135 to 136 °C; 6: 163 to 164 °C; 7: 180 to 183 °C; 8: 105 to 106 °C

State recorded melting point for all listed compounds.
1. [N-]=[N+]=NCc1nc2ccccc2n1Cc1ccccc1
2. COc1c(C(=O)O)sc(C(F)(F)F)c1SCc1ccccc1
3. COC(=O)c1c(OC)cccc1C(=O)O
4. COC(=O)C=C(Nc1coc2ccc(Cl)cc2c1=O)C(=O)OC
5. CC1CC(C)(C)C(O)(CO)C1Cc1ccc(Cl)cc1 (stereo not given)
6. CN(C)CCNC(=O)c1cn(C)c(=O)c2cc3cccnc3nc12
7. CC(C)CCC(O)C(CC1CCCCC1)NC(=O)C(Cc1c[nH]cn1)N(C)C(=O)C(Cc1ccccc1)OC(=O)N(C)CCC(=O)N1CCOCC1 (stereo not given)

["108 to 110 °C", "146 to 147 °C", "140 to 141 °C", "158 to 160 °C", "93 to 94 °C", "218 to 221 °C", "80 to 87 °C"]

State recorded melting point for all listed compounds.
1. S=C(NCCc1ccccc1Cl)Nc1ccccn1
2. COC(=O)c1nc(CI)n(-c2ccc(Cl)cc2C(=O)c2ccccc2)n1
3. CCCc1ccc2nc(C(F)(F)F)c(S(=O)(=O)N=CN(C)C)n2n1
4. Nc1nc(N)nc(C2CCN(C(=O)c3ccccc3)CC2)n1
5. Cc1cc2c(cc1Br)cc1n2[C@H](C)CN(C(=O)OC(C)(C)C)C1
6. CC(=O)Nc1cc(C(F)(F)F)ccc1N1CCc2ccccc21

1. 116 to 122 °C
2. 139 to 142 °C
3. 219 to 220 °C
4. 246 to 248 °C
5. 113 to 114 °C
6. 153 to 155 °C

State recorded melting point for all listed compounds.
1. O=C(C1CCN(c2ccncn2)CC1)N1CCN(Cc2ccccc2)CC1
2. CCNS(=O)(=O)c1cccc(NC(=O)c2cnn3c(C(F)F)cc(-c4ccc(C(F)(F)F)cc4)nc23)c1
3. Cc1ccc(S(=O)(=O)C=C(Cl)C#N)cc1

1. 107 to 108 °C
2. 259 °C
3. 78 °C
